- MEASUREMENT_NOTES: in vivo
- STUDY_CONDITIONS: female, ICR CD-1, mouse, plasma, sc, 50 mg/kg, Plasma concentration MKM, s.c. 50 mg/kg, Time 8 (h), Mouse 1; below limit of quantification
Where a SMILES comes first, the peptide text is derived from it. Bridges are numbered along the chain shown (N, C = ends). [ ]: non-standard residue; d: D form. dOrn = NCCC[C@@H](N)C(=O)O
ENDPOINT_NAME: level at 8 h (ng/mL)
Unit ng/mL implied. Number only.

q: Can you share its level at 8 h? I mean this molecule: C[C@@H](O)[C@@H]1NC(=O)[C@@H](CCCNC(=N)N)NC(=O)[C@@H](CCCNC(=N)N)NC(=O)[C@@H](CC(N)=O)NC(=O)[C@@H](NC(=O)[C@@H](Cc2ccccc2)NC(=O)[C@@H](CCCN)NC(=O)[C@H](N)CCCNC(=N)N)[C@@H](C)OC(=O)[C@H](Cc2c[nH]cn2)NC1=O [MKM-A, manikomycin] (H-[dR][dOrn][dF]T[dN][dR][dR]TH; ester 4-C)
a: 386

Value source: paper PMC13372681
